The measurements presented in this section are drawn from patent US20230355720A1.

- target.entity: human GLP-1 receptor (human, UniProt P43220 24-463)
- experimental.protocol: cell-based or functional assay
Bridge positions count the residues as written; N and C are the ends. Square brackets hold non-standard residues; d marks the D form. Ends that are not written are not given here. * marks the point of attachment. Acetyl(2-(4-imidazolyl)) = O=C(Cc1c[nH]cn1)*; Aib = CC(C)(N)C(=O)O
Returns one of met or not met; met when In vitro activity (%) compared with native peptide, vs GLP-1 is >= 20%.

Sample answers from the record:
{"columns": ["binder", "class.name"],
 "data": [
  ["[Acetyl(2-(4-imidazolyl))]GEGTFTSDLSKYLDSRRQQLFVQWLKAGGPSSGAPPPSHG (not fully specified) [triple agonist of SEQ ID NO: 11]", "not met"],
  ["Y[Aib]QGTFTSDYSKYLDEKRAKEFVQWLLCHHPSSGQPPPS (bridge 16-20) [triple agonist of SEQ ID NO: 95]", "not met"],
  ["H[Aib]QGTFTSDVSSYLDGQAAKEFIAWLVKGC [triple agonist of SEQ ID NO: 1]", "not met"],
  ["[Acetyl(2-(4-imidazolyl))]GQGTFTSDYSIQLDEIAVRDFVEWLKNGGPSSGAPPPSHG (not fully specified) [triple agonist of SEQ ID NO: 14]", "met"],
  ["{Acetyl(2-(4-imidazolyl))}-[Aib]EGTFTSDYSIAMDEIHQKDFVDWLLAEKC (bridge 15-19; numbers in words are those of the source; also: ring between positions 16 and 20, type not given here) [triple agonist of SEQ ID NO: 91]", "met"]
]}

Query: I'd appreciate it if you could say whether H[Aib]QGTFTSDVSSYLLGQQQKEFIAWLVKGC [triple agonist of SEQ ID NO: 4] has In vitro activity (%) compared with native peptide, vs GLP-1 at least equal to 20%.
Reply: not met

Query: I'd appreciate it if you could say whether Y[Aib]QGTFTSDYSKALDEKAAKDFVNWLLDHHPSSGQPPPSC (bridge 16-20) [triple agonist of SEQ ID NO: 99] has In vitro activity (%) compared with native peptide, vs GLP-1 at least equal to 20%.
Reply: met

Query: I'd appreciate it if you could say whether Y[Aib]QGTFTSDYSKYLDEKRAKEFVQWLLDHCPSSGQPPPS (bridge 16-20) [triple agonist of SEQ ID NO: 96] has In vitro activity (%) compared with native peptide, vs GLP-1 at least equal to 20%.
Reply: met

Query: I'd appreciate it if you could say whether Y[Aib]QGTFTSDYSKCLDERAAKEFVQWLLDHHPSSGQPPPS (bridge 16-20) [triple agonist of SEQ ID NO: 69] has In vitro activity (%) compared with native peptide, vs GLP-1 at least equal to 20%.
Reply: met

Query: I'd appreciate it if you could say whether {Acetyl(2-(4-imidazolyl))}-[Aib]EGTFTSDYSIAMDEIHQKDFVDWLLAEC (bridge 15-19; numbers in words are those of the source; also: ring between positions 16 and 20, type not given here) [triple agonist of SEQ ID NO: 84] has In vitro activity (%) compared with native peptide, vs GLP-1 at least equal to 20%.
Reply: not met
